Assay: Pharmacokinetics of ZA in pig serum after IV or SC infusion with or without rHuPH20 (LC-MS-MS, non-compartmental analysis)
Type: in vivo
Conditions: female, Yorkshire, pig, serum, subcutaneous, […], Time 3 h; pig ID 70; Study Group 2; SC; ZA […]; 10 mL, 1.6 min; rHuPH20 0 U/mL; read-out: Zoledronic Acid Serum Concentration
property measured: concentration at 3 h (ng/mL)

[[record]]
molecule = "O=P(O)(O)C(O)(Cn1ccnc1)P(=O)(O)O [ZA]"
obs_value = 22.2


---

Experiment: Phase 1 Stage 1 clinical pharmacokinetics of SC ZA co-administered with rHuPH20
Assay type: in vivo, human
Settings: human, serum, sc, 0.0196 mg/kg, AUC (0-24 h), Subj 27; ZA 0.0196 mg/kg SC; inf […]; PH20 23976 U
property measured: AUC(0-t) (ng·h/mL)

[[record]]
compound = "O=P(O)(O)C(O)(Cn1ccnc1)P(=O)(O)O [ZA]"
property_measured = "AUC(0-t)"
unit_symbol = "ng·h/mL"
obs_value = 116


---

Assay: Phase 1 Stage 1 clinical pharmacokinetics of SC ZA co-administered with rHuPH20
Assay type: in vivo, human
Conditions: human, serum, sc, 0.0691 mg/kg, Subj 39; ZA 0.0691 mg/kg SC; inf 0.552 hr; PH20 23856 U
property measured: Cmax

[[record]]
compound = "O=P(O)(O)C(O)(Cn1ccnc1)P(=O)(O)O [ZA]"
obs_value = "147 ng/mL"


---

Test: Phase 1 Stage 1 clinical pharmacokinetics of SC ZA co-administered with rHuPH20
Type: in vivo, human
Settings: human, serum, sc, ZA 0.5 mg SC + 24000 U rHuPH20; individual subjects; read-out: Vz/F
property measured: Vd/F (L/kg)

[[record]]
structure_string = "O=P(O)(O)C(O)(Cn1ccnc1)P(=O)(O)O"
unit_symbol = "L/kg"
obs_value = 0.456


---

Test: Phase 1 Stage 1 clinical pharmacokinetics of SC ZA co-administered with rHuPH20
Assay type: in vivo, human
Details: human, serum, sc, […], AUC (0-48 h), Subj 25; ZA […] SC; inf 0.549 hr; PH20 23736 U
property measured: AUC(0-t) (ng·h/mL)

[[record]]
structure_string = "O=P(O)(O)C(O)(Cn1ccnc1)P(=O)(O)O"
property_measured = "AUC(0-t)"
unit_symbol = "ng·h/mL"
obs_value = 115


---

Experiment: Phase 1 Stage 1 clinical pharmacokinetics of SC ZA co-administered with rHuPH20
Type: in vivo, human
Conditions: human, serum, sc, serum; ZA 5 mg SC infusion + 24000 Units rHuPH20; 24 h post infusion; n=3; read-out: Mean Conc.
property measured: concentration at 24 h (ng/mL)

[[record]]
structure_string = "O=P(O)(O)C(O)(Cn1ccnc1)P(=O)(O)O"
property_measured = "concentration at 24 h"
obs_value = 2.45


---

Assay: Phase 1 Stage 1 clinical pharmacokinetics of SC ZA co-administered with rHuPH20
Type: in vivo, human
Conditions: human, serum, sc, serum; ZA 1 mg SC infusion + 24000 Units rHuPH20; 12 h post infusion; individual subjects; read-out: Zoledronic Acid Concentration
property measured: concentration at 12 h (ng/mL)

[[record]]
structure_string = "O=P(O)(O)C(O)(Cn1ccnc1)P(=O)(O)O"
obs_value = 1.02

